Molecular target: T1, human collagen type I, acid soluble, extracted from placenta (Sigma C7774) (human, UniProt P02452 162-1218; P08123 80-1119)
T1 construct: tissue extract, gelled and dried in wells; also called dried human collagen; h-Collagen
T1 sequence (P02452 162-1218 limits assumed, chain 1 of 2): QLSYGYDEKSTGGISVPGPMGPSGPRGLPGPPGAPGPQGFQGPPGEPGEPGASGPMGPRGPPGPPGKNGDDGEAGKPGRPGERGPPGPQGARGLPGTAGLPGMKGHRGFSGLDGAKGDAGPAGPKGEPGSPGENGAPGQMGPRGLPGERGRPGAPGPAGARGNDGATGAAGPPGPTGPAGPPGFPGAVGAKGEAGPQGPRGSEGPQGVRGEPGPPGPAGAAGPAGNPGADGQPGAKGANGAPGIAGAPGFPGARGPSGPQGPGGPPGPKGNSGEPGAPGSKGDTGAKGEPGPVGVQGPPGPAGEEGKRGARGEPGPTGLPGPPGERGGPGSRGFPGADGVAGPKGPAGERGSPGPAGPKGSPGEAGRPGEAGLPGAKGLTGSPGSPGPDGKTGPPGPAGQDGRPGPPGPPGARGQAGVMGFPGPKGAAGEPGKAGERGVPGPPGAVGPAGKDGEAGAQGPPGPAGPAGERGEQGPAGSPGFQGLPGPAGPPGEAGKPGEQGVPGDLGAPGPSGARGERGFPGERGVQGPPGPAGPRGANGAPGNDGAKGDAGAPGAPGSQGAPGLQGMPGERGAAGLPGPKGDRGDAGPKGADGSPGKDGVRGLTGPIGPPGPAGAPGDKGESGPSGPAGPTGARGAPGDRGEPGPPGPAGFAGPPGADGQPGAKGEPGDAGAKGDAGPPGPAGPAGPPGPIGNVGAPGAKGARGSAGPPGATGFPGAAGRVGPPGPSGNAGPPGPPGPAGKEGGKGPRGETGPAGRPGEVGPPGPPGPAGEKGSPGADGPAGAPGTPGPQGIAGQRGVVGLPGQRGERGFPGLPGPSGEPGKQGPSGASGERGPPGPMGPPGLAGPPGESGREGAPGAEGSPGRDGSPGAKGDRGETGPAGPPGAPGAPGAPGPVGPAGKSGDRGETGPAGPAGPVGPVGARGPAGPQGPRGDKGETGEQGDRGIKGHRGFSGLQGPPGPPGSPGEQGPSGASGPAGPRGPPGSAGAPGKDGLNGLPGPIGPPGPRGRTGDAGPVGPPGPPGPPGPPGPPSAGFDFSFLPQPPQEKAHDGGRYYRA
T1 sequence (P08123 80-1119 limits assumed, chain 2 of 2): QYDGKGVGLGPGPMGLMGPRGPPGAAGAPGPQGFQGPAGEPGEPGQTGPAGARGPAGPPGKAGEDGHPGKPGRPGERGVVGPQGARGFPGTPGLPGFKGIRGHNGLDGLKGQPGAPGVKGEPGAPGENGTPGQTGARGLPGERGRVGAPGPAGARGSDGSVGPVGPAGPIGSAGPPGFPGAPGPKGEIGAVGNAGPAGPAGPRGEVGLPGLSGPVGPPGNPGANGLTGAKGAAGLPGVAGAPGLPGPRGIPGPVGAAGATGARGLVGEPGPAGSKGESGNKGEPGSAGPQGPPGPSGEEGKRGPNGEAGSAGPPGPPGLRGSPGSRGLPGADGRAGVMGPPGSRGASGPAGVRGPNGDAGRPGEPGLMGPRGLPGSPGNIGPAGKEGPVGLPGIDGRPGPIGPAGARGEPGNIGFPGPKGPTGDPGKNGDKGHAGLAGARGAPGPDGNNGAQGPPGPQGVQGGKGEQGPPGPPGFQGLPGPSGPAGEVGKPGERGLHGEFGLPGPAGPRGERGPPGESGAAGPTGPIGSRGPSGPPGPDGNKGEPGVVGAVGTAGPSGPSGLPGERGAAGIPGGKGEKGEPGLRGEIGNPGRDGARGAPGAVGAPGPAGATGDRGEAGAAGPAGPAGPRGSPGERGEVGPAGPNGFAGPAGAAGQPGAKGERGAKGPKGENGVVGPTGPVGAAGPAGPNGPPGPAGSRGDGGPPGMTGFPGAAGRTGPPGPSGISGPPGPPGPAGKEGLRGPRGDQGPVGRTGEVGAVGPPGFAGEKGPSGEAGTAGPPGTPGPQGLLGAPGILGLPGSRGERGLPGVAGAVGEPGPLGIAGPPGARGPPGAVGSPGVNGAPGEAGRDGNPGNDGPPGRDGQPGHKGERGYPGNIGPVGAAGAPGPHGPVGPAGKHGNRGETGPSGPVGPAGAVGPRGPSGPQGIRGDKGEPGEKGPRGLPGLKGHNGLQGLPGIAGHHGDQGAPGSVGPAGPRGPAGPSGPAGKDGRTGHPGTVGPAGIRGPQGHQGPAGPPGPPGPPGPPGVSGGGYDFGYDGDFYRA
Assay: dried collagen assay
Bridge positions count the residues as written; N and C are the ends. Primed or numbered codes have the meaning given here. Side chains are listed from the residue outwards. Ends that are not written are not given here. Gd^T = not defined here; Gd^T″ = GdDTPA-thiourea
Use MET when the recorded % bound is no lower than 60%; use NOT MET when it is lower.

// query API: above_or_equal(metric=% bound, cutoff=60%) for item {Gd^T″}-GK([Gly-Gd^T″])WHCTTYFPHHYCVYG (disulfide 5-14 (inferred)) [Compound ID 942]
// result MET

// query Given {Gd^T″}-GQWHCTTLFPHNYCLYG (disulfide 5-14 (inferred)) [Compound ID 924] , state whether its % bound is at least 60%.
// result NOT MET

// query Does the reported % bound for {Gd^T}-GQWTCSGDEYTWHCNYA (disulfide 5-14 (inferred); not fully specified (C-terminus); reading uncertain) [Compound ID 841] fall at or above the 60% mark?
// result NOT MET

// query Given {Gd^T″}-GQWHCTTLFPHHYCIYG (disulfide 5-14 (inferred)) [Compound ID 927] , state whether its % bound is at least 60%.
// result MET

// query API: above_or_equal(metric=% bound, cutoff=60%) for item {Gd^T″}-GQWHCATRFPHHYCLYG (disulfide 5-14 (inferred)) [Compound ID 877]
// result NOT MET
